For each record, write down the corresponding koff.
# assayed-system: T1, recombinant human CTLA4-his protein (Acro biosystems, Cat#CT4-H5229) (human, UniProt P16410 37-162)
# T1 construct: bought recombinant protein; not shown: his tag
# T1 sequence (looked up): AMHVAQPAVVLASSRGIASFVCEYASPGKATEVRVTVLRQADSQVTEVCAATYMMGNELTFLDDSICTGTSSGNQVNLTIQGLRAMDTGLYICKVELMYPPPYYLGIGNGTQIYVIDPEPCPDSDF
# procedure-text: SPR, Biacore T200; antibody captured, CTLA4-his as analyte
Give bare numbers, in s⁻¹.

# binder, koff (s⁻¹)
records = [
    ("mouse anti-CTLA4 monoclonal antibody D1B6 (antibody, V domains shown, mouse mAb purified from hybridoma supernatant) VH: EVQLQQSGPELVKPGASVKLSCKASGNTFTTYVLNWVKQKPGQGLEWIGYFNPYNDGIKYNEKFKGKATLTSDKSSNTAYMELSSLTSEDSAVYYCARFEGGGYAMDYWGQGTSVTVSS VL: DIVLTQSPASLAVSLGQRATISCRASQSVGTSRNTYIHWYQQKLGQPPKLLIKYASDLESGVPARFSGSGSGTDFTLNIHPVEEEDTATYYCQHSWEIPYTFGGGTKLEIK", 0.000487),
    ("mouse anti-CTLA4 monoclonal antibody D1A7 (antibody, V domains shown, mouse mAb purified from hybridoma supernatant) VH: QVTLKESGPGMLQPSQTLSLTCSFSGFSLSSSKLGVGWIRQPAGKGLEWLAHIWWNDDNYYVPSLKSRLTISKDTSNNQVFLKITNVDAADTATYYCVQVPYYTTQPWFAYWGQGTLVTVSA VL: DIQMTQSPASLSASVGETVTITCRASGNIHNYLAWYLQNQGRSPQLLVYNTETLADGVSSRFSGSGSGTQYFLKISSLQPEDFGTYYCQHLWSTPWTFGGGTKLEIK", 0.000602),
    ("mouse anti-CTLA4 monoclonal antibody D1B8 (antibody, V domains shown, mouse mAb purified from hybridoma supernatant) VH: QIQLQQSGPELVKPGASVKISCKASGYTFTDYYINWVKQRPGQGLEWIGWIYPGNNNTRYNEKFKGKATLTIDTSSSTAFMHLSSLTSEDSAVYFCARYYFDYWGQGTTLTVSS VL: DIQMTQSPSSLSASLGERISLTCRASQEITGYLSWLQQKPDGTIKRLIYAASTLDSGVPQRFSGSRSGSDYSLTISSLESEDFADYYCLQYASYPRTFGGGTKLEIK", 0.000495),
]

The record that follows has no koff shown yet.
Query: What measured koff goes with mouse anti-CTLA4 monoclonal antibody D1G6 (antibody, V domains shown, mouse mAb purified from hybridoma supernatant) VH: EVQLQQSGPELVKPGASVKLSCKASGNTFTTYVLNWVKQKPGQGLEWIGYFNPYNDAIKYNEKFKGKATLTSDKSSSTAYMELSSLTSEDSAVYYCARFEGGGYAMDYWGQGTSVTVSS VL: DIVLTQSPASLAVSLGQRATISCRASQSVGTSSYSYIHWYQQKPGQPPKLLIKYASDLESGVPARFSGSGSGTDFTLNIHPVEEEDTATYYCQHSWEIPYTFGGGTKLEIK ?
Response: 0.000695
